Tested on: PPARg:RXRa 270nM:90nM, anti-RXR (NR concentration 270 nM, RXRa partner concentration 90 nM)
Test: PBM binding z-score (relative to random genomic background probes); higher = stronger binding; sequences stand for … in GC…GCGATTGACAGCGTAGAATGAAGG
Quick rule for you: PBM binding z-score at 2 or higher means MET, lower means NOT MET.

PBM binding z-score >= 2 for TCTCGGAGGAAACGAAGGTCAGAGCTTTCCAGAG ? NOT MET

----------
System: RARb:RXRa (NR concentration 270 nM, RXRa partner concentration 90 nM)
Experiment: PBM binding z-score (relative to random genomic background probes); higher = stronger binding; sequences stand for … in GC…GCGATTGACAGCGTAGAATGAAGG
test_readout: PBM binding z-score

>>> print(df.to_string())
                       query_sequence  observed
0  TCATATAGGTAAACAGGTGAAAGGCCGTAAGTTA     0.989
1  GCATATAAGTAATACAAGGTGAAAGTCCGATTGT     0.452

Return PBM binding z-score measured with RARb:RXRa (NR concentration 270 nM, RXRa partner concentration 90 nM) given this sequence: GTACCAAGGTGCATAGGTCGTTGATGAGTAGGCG 0.748

----------
Test system: THRa homodimer (NR concentration 90 nM)
Assay: PBM binding z-score (relative to random genomic background probes); higher = stronger binding; sequences stand for … in GC…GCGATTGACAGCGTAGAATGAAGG
test_readout: PBM binding z-score
Would you mind answering with just the numeric figure?

Below, 2 sequences whose answers are already recorded.
In [3]: df
Out[3]:
                       query_sequence  observed
0  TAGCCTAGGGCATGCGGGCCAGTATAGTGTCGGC      -1.1
1  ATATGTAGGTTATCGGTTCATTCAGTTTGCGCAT      1.08

Return PBM binding z-score measured with THRa homodimer (NR concentration 90 nM) given this sequence: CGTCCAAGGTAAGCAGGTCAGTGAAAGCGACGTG 0.269

What do we get for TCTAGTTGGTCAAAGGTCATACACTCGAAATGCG ? 1.94

What do we get for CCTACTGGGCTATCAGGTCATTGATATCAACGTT ? 2.44

What do we get for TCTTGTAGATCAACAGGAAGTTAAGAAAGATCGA ? -1.05

What do we get for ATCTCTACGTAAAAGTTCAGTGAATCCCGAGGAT ? 0.154

What do we get for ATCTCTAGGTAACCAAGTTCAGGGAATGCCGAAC ? 0.87

What do we get for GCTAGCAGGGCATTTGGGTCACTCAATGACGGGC ? 0.291

----------
System: PPARg:RXRa DBDmut IVT, anti-RXR (DBD mutation: RXRa K156A/R161A, NR concentration 270 nM, RXRa partner concentration 90 nM)
Assay: PBM binding z-score (relative to random genomic background probes); higher = stronger binding; sequences stand for … in GC…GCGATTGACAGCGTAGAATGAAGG
test_readout: PBM binding z-score

In [3]: df
Out[3]:
                       query_sequence         test_readout  observed
0  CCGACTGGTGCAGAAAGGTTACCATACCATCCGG  PBM binding z-score    -0.779
1  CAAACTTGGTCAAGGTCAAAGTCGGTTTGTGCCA  PBM binding z-score      2.24
2  CGAACTAGGTCATAGACAGGACAGTGAATAGTAA  PBM binding z-score      7.81
3  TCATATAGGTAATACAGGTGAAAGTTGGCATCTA  PBM binding z-score      4.09

Name the recorded PBM binding z-score for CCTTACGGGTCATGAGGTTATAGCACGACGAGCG . 3.29

What do we get for GCTGCTAGGTCAGGTTGTTCAGCTAACGGGTACG ? 3.24

What do we get for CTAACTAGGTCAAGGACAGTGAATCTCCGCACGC ? 8.7

What do we get for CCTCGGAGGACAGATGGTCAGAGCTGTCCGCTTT ? -0.386

What do we get for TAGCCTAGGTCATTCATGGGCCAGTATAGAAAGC ? 1.41

What do we get for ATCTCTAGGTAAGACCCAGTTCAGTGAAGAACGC ? 2.24

What do we get for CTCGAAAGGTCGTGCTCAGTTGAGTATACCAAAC ? 0.724

What do we get for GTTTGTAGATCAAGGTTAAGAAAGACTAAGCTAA ? 1.8

What do we get for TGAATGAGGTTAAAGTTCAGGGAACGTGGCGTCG ? 2.35

What do we get for CGTCCTAGGTCAATGCTAGGTCAGTGAAAGCATT ? 3.18

----------
Parameter PBM binding z-score: see the listing below.
Test system: PXR:RXRa (NR concentration 270 nM, RXRa partner concentration 90 nM)
Experiment: PBM binding z-score (relative to random genomic background probes); higher = stronger binding; sequences stand for … in GC…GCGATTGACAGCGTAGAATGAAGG
Would you mind answering with just the numeric figure?

Below, 2 sequences whose answers are already recorded.
>>> df
                       query_sequence                            assayed_target  observed
0  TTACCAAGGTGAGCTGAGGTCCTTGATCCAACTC  PXR:RXRa (NR concentration 270 nM, RXRa partner concentration 90 nM)      1.26
1  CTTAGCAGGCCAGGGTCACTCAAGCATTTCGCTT  PXR:RXRa (NR concentration 270 nM, RXRa partner concentration 90 nM)      2.67

Name the recorded PBM binding z-score for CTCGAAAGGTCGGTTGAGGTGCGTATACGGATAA . 1.84

What do we get for TCTGCTAGGTCAGCGATGGTCAGCTAATCTGCTA ? 0.17

What do we get for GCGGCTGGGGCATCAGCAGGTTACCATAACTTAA ? 0.178

----------
Test system: RARa homodimer (NR concentration 270 nM)
Assay: PBM binding z-score (relative to random genomic background probes); higher = stronger binding; sequences stand for … in GC…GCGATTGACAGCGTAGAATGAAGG
test_readout: PBM binding z-score
Would you mind answering with just the numeric figure?

Below, 4 sequences whose answers are already recorded.
>>> print(df.to_string())
                       query_sequence  observed
0  CCTACTGGGCCATTCAGAGGCCATTGATCATATG    -0.498
1  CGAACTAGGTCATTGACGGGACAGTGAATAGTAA     0.192
2  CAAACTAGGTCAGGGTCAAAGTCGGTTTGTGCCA      1.42
3  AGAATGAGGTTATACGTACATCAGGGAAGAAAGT     0.483

Name the recorded PBM binding z-score for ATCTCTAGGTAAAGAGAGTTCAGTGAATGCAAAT . 0.685

What do we get for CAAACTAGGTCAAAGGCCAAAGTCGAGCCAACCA ? 0.255

What do we get for TCTATTAGTTGATTAGGGCAAGCGAAACAGCGGA ? 1.01

----------
Tested on: LXRb homodimer (NR concentration 270 nM)
Assay: PBM binding z-score (relative to random genomic background probes); higher = stronger binding; sequences stand for … in GC…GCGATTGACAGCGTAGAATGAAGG
test_readout: PBM binding z-score
Would you mind answering with just the numeric figure?

Below, 5 sequences whose answers are already recorded.
In [3]: df
Out[3]:
                       query_sequence  observed
0  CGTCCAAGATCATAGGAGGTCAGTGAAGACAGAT     0.134
1  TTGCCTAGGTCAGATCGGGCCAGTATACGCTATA    -0.831
2  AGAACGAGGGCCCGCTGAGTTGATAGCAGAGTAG     -1.19
3  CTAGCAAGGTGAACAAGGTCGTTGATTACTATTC     -1.03
4  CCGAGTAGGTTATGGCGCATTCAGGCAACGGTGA    -0.283

Return PBM binding z-score measured with LXRb homodimer (NR concentration 270 nM) given this sequence: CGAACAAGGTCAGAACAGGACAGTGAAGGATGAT 0.289

What do we get for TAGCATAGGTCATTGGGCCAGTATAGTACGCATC ? 0.541

What do we get for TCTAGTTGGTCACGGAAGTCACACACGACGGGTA ? 0.323

What do we get for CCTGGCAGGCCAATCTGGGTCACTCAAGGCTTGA ? -1.26

What do we get for TCTTGTAGATCAACAGCAGGTTAAGAAAGATCGA ? -0.319

What do we get for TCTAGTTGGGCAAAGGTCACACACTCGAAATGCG ? 0.789

What do we get for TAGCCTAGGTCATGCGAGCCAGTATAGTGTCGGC ? 0.134

Recorded values, source the supplement of paper PMC6555819.
